Reference source for all entries: patent US9096608B2

Reported IC50 is given for each of the following compounds.
experimental-target: CDK7/CycH/Mat1 (Homo sapiens, UniProt P50613)
Construct: purchased Carna
Sequence (P50613 whole entry): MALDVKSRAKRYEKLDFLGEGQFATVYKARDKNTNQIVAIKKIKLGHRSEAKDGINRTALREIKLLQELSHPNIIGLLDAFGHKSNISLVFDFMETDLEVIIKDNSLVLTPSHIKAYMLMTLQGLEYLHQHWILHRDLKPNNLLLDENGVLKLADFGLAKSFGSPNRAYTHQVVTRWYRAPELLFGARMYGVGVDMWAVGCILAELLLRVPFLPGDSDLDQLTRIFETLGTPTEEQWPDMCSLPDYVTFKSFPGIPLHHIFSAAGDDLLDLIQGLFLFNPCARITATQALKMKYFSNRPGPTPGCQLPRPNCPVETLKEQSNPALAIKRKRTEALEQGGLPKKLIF
Sequence (P51946 whole entry partner): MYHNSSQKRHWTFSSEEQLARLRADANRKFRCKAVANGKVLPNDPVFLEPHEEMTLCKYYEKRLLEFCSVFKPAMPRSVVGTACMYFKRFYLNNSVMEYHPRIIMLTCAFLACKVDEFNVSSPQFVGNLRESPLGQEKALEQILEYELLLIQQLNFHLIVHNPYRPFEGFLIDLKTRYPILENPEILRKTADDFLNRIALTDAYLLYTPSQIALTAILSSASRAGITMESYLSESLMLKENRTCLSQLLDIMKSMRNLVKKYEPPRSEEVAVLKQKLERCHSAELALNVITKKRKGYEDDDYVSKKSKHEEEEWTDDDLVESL
Sequence (P51948 whole entry partner): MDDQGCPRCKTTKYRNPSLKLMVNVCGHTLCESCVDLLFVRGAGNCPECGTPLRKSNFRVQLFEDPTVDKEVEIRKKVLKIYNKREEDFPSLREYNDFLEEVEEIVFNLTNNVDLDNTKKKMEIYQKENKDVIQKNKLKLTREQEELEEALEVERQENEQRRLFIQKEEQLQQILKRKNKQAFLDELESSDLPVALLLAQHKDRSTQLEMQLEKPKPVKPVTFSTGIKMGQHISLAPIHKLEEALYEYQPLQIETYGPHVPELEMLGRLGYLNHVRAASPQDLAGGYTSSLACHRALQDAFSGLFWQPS
measurement-notes: CDK7 Enzymatic Activity Assay (Lance Kinase Activity Assay, FRET)
Type: biochemical
measurement-context: Table 5A; 25 μM ATP final; read-out: CDK7: IC50 [mM] for CDK7 inhibition (the above defined ranges apply)

compound | IC50
COc1ccccc1[C@H](C)Nc1nc(O[C@@H]2CCNC2)nc2c(C(C)C)cnn12 | < 10 nM
COc1cccc([C@H](C)Nc2nc(N3CCC34CCNCC4)nc3c(C(C)C)cnn23)c1 | < 10 nM
CC(C)c1cnn2c(N[C@@H](C)c3ccccc3)nc(OCCC3CCNCC3)nc12 | < 10 nM
CC(C)c1cnn2c(N[C@@H](C)c3ccccc3)nc(N[C@@H]3CCCNC3)nc12 | 30 to 100 nM
CC(C)c1cnn2c(N[C@@H](C)c3ccccc3)nc(OC3CCC(N)CC3)nc12 (stereo partly shown) | < 10 nM

Request: Given the compound COc1ccccc1[C@H](C)Nc1nc(OC2CCNCC2)nc2c(C(C)C)cnn12 , what is its reported IC50?
Response: < 10 nM

Request: Which value of IC50 has been reported for CC(C)C[C@H](Nc1nc(O[C@@H]2CCCNC2)nc2c(C(C)C)cnn12)c1ccccc1 in the records?
Response: 30 to 100 nM

Request: Given the compound CC(C)c1cnn2c(N[C@@H](C)c3ccccc3)nc(OC3CCN(CCCN)CC3)nc12 , what is its reported IC50?
Response: < 10 nM

Request: Please look up its IC50: COc1cccc([C@H](C)Nc2nc(CN3CC(N4CCC(F)(F)C4)C3)nc3c(C(C)C)cnn23)c1
Response: > 100 nM

Request: Report IC50 for CC(C)c1cnn2c(N[C@@H](C)c3ccccc3)nc(N3CCC(N)CC3)nc12 please.
Response: 10 to 30 nM

Request: Look up IC50 for this compound: COc1cccc([C@H](C)Nc2nc(NCCN3CCOCC3)nc3c(C(C)C)cnn23)c1
Response: > 100 nM

Request: Any idea what IC50 was measured for CC(C)c1cnn2c(NC(C)c3ccccc3N3CCCC3)nc(O[C@@H]3CCCNC3)nc12 (stereo partly shown) ?
Response: > 100 nM

Request: Value lookup for IC50; key = CC(C)c1cnn2c(NC(C)c3ccccc3N3CCC3)nc(O[C@@H]3CCCNC3)nc12 (stereo partly shown)
Response: < 10 nM

Request: Which IC50 value belongs to CC(C)c1cnn2c(NC(C)c3ccc4[nH]ncc4c3)nc(O[C@@H]3CCCNC3)nc12 (stereo partly shown) ?
Response: < 10 nM

Request: Give its IC50 value. Item: COc1cccc([C@H](C)Nc2nc(NCCN3CCCC3)nc3c(C(C)C)cnn23)c1
Response: > 100 nM
